Test: Inhibition of Dictyostelium discoideum AX2 RNase P by double reciprocal plot
Recorded Ki values for a group of molecules are listed next.

# SMILES DATA, UNITS SYMBOL, Ki
records = [
    ("CC1=C(/C=C/C(C)=C/C=C/C(C)=C\\C(=O)O)C(C)(C)CCC1", "µM", 20),
    ("CCS(=O)(=O)c1ccc(/C=C(\\C)c2ccc3c(c2)C(C)(C)CCC3(C)C)cc1", "µM", 3600),
    ("CC1=C(/C=C/C(C)=C/C=C/C(C)=C/C(=O)NCCCNCCCCNCCCN)C(C)(C)CCC1", "µM", 2.4),
    ("CCOC(=O)c1ccc(/C=C(\\C)c2ccc3c(c2)C(C)(C)CCC3(C)C)cc1", "µM", 4350),
]
